Tested on: Mfn2 null MEFs
test_method_notes: Mitochondrial elongation (aspect ratio) fusogenicity assay
Assay type: cell-based, mouse
Design: dose or concentration left out as unconfirmed
conditions_used: mitochondrial elongation relative to Cpd B (B01 = 100); Mfn2 null MEFs, compound overnight as printed (FIG. 48)
test_readout: % long compare to B (%)

>  <molecule>
CC(Sc1nnc(C2CC2)n1-c1ccccc1)C(=O)Nc1sc2c(c1C#N)CCCCC2 (stereo not shown)

>  <system_tested>
Mfn2 null MEFs

>  <experimental_result>
7

$$$$
>  <molecule>
Cc1nnc(SCC(=O)Nc2sc3c(c2C(N)=O)CCC3)n1Cc1ccccc1

>  <system_tested>
Mfn2 null MEFs

>  <experimental_result>
−18

$$$$
>  <molecule>
CC1CCc2c(sc(NC(=O)CSc3nnc(C4CC4)n3Cc3ccccc3)c2C(N)=O)C1 (stereo not shown)

>  <system_tested>
Mfn2 null MEFs

>  <experimental_result>
11

$$$$
>  <molecule>
Cc1ccc(NC(=O)CC2SC(NC(c3ccc(C(C)C)cc3)c3c(O)[nH]c(=O)[nH]c3=O)=NC2=O)c(C)c1 (stereo not shown)

>  <system_tested>
Mfn2 null MEFs

>  <experimental_result>
−4

$$$$
